molecular target: GluA2 AMPA receptor subunit (flip isoform) (Homo sapiens, UniProt P42262); construct: expressed in transfected cells; host or cells: HEK293; assay: Whole-cell patch-clamp electrophysiology, homomeric GluA2 expressed in HEK293 cells; type: cell-based; conditions: 10 mM glutamate, 12 µM compound, n = 10
Sequence (P42262 25-883 isoform P42262-2 limits assumed): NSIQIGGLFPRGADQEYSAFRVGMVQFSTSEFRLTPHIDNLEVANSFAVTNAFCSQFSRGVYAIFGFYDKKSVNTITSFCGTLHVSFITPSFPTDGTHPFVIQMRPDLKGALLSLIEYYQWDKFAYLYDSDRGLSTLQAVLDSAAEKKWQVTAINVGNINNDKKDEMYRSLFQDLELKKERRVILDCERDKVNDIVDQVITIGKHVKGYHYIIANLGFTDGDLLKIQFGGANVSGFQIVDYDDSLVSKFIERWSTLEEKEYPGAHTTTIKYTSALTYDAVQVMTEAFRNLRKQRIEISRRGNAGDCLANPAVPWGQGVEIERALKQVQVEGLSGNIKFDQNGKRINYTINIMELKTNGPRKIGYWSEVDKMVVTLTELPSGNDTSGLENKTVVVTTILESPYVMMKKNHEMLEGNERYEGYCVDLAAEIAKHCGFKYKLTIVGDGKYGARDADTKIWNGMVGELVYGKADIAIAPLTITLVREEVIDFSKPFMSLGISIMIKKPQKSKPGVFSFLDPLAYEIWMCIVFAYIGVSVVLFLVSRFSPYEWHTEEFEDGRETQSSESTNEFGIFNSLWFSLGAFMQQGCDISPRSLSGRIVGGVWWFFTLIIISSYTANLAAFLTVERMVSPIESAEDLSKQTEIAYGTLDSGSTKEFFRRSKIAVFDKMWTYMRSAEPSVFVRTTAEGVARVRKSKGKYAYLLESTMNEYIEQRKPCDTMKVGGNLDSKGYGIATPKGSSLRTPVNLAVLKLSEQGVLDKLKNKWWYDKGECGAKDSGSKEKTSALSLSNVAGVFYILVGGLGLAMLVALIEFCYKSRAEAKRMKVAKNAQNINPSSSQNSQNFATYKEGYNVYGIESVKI
observationType: A/AI (current with glutamate alone / current with glutamate + compound)

[
  {
    "compound": "O=C(CCCCC1CCSS1)OCCCO[N+](=O)[O-] (centres unmarked)",
    "assayedTarget": "GluA2 AMPA receptor subunit (flip isoform) (Homo sapiens, UniProt P42262)",
    "val": 11.16
  },
  {
    "compound": "O=C(CCCCC1CCSS1)OCCCCCCO[N+](=O)[O-] (centres unmarked)",
    "assayedTarget": "GluA2 AMPA receptor subunit (flip isoform) (Homo sapiens, UniProt P42262)",
    "val": 7.91
  },
  {
    "compound": "O=C(CCCCC1CCSS1)OCCCCCCO (centres unmarked) [LA4, 1-Hydroxy-6-Lipoester]",
    "assayedTarget": "GluA2 AMPA receptor subunit (flip isoform) (Homo sapiens, UniProt P42262)",
    "val": 7.65
  },
  {
    "compound": "O=C(O)CCCCC1CCSS1 (stereo not drawn) [α-LA, alpha-Lipoic acid, reference compound]",
    "assayedTarget": "GluA2 AMPA receptor subunit (flip isoform) (Homo sapiens, UniProt P42262)",
    "val": 9.09
  },
  {
    "compound": "O=C(CCCCC1CCSS1)OCCCO (centres unmarked) [LA1, 1-Hydroxy-3-Lipo Ester]",
    "assayedTarget": "GluA2 AMPA receptor subunit (flip isoform) (Homo sapiens, UniProt P42262)",
    "val": 10.22
  }
]
